- Test system: OVCAR-8 ovarian
- Assay info: NCI-60 one-dose screen, 48 h (100 = growth as untreated, 0 = no growth, -100 = all killed)
- Recorded conditions: 10 µM unless noted
Compounds without any hit were thinned out: in the full panel of roughly 83,000, 20% have a hit.
Quantity measured: growth (%)

Smiles text | Quantity measured | Experimental result
Cc1ccc(C2CCCCC2)cc1Br | growth | 98.4
CN(C)c1ncnc2c1cnn2C | growth | 94.7
Nc1cc2ccccc2c(O)c1O | growth | -69.9
Cc1ccc(C(C)C)c(OCC(=O)O)c1 | growth | 101
CCOP(=O)(NC(c1ccccc1)c1ccccc1)OCC | growth | 98.1
O=S(=O)(O)c1cccc2cccnc12 | growth | 112
O=C(O)c1c[nH]c2ccccc2c1=O | growth | 108
Cc1ccc2nc(N)nnc2c1 | growth | 112
